- assayName: Solubility of crystal Forms in pH 6.8 buffer (1 hour equilibration, filtration, HPLC)
- Assay type: physicochemical
- conditionLabel: 20 mg in 1 mL, equilibrated for 1 hour, 0.45 μm filter, HPLC
assayEndpoint: Solubility in pH 6.8 buffer (mg/mL)

# compound, Solubility in pH 6.8 buffer / mg/mL
measured = [
    ("CC(=O)c1c(C)c2cnc(Nc3ccc(N4CCNCC4)cn3)nc2n(C2CCCC2)c1=O [Form XIV]", 0.012),
]

[I] CC(=O)c1c(C)c2cnc(Nc3ccc(N4CCNCC4)cn3)nc2n(C2CCCC2)c1=O [Form IX]
[II] CC(=O)c1c(C)c2cnc(Nc3ccc(N4CCNCC4)cn3)nc2n(C2CCCC2)c1=O [Form A, reference compound]
[III] CC(=O)c1c(C)c2cnc(Nc3ccc(N4CCNCC4)cn3)nc2n(C2CCCC2)c1=O [Form VIII]
[IV] CC(=O)c1c(C)c2cnc(Nc3ccc(N4CCNCC4)cn3)nc2n(C2CCCC2)c1=O [Form B, reference compound]
Task item: Ascending by Solubility in pH 6.8 buffer, please: list the compounds accordingly. The response must list the labels following the requested ordering.
Reply: II, IV, III, I

Each recorded value in this set is attributed to patent US10544142B2.
